- Tested on: A549
- method_notes: MTT cytotoxicity assay, A549
- Assay type: cell-based, human
- condition_set: A549, 72 h
measure: IC50 (µM)
One number for each entry, in µM.

So what's the measured IC50 for this one? N.N.[Cl][Pt][Cl] [Cisplatin, reference compound]
9.34

* * *

- Test system: RBE
- method_notes: MTT cytotoxicity assay, RBE
- Type: cell-based, human
- condition_set: 72 h
measure: IC50 (µM)
Numbers only, in µM.

So what's the measured IC50 for this one? N.N.[Cl][Pt][Cl] [Cisplatin, reference compound]
4.26

* * *

Hi there, I'd appreciate the recorded IC50 for every entry that follows.
- Test system: Huvec
- method_notes: MTT cytotoxicity assay, Huvec (normal cells)
- Format: cell-based
- condition_set: Homo sapiens, HUVEC, 72 h, Huvec normal human cell line
Numbers only, in µM.

Go through the items and report each one's IC50.
1. COc1cccc2c1C(=O)c1c(O)c3c(c(O)c1C2=O)C[C@@](O)(C(=O)CO)C[C@@H]3O[C@H]1C[C@H](N)[C@H](O)[C@H](C)O1 [Adriamycin, reference compound]
2. COc1cc(C)cc2c(=O)oc3c(c12)C(=O)c1cccc(O)c1C3=O [Compound 2, WS-5995A]
3. COc1cc(C)cc(C(=O)O)c1C1=CC(=O)c2c(O)cccc2C1=O [Compound 3, WS-5995B]

3.87
31.2
7.67

* * *

- Test system: Huvec
- method_notes: MTT cytotoxicity assay, Huvec (normal cells)
- Type: cell-based
- condition_set: Homo sapiens, HUVEC, 72 h, Huvec normal human cell line
Hi there, I'd appreciate the recorded IC50 for every entry that follows.

CCOC(=O)c1cc(C)cc(OC)c1C1=C(O)C(=O)c2c(O)cccc2C1=O: > 50 µM
COC(=O)c1cc(C)cc(OC)c1C1=C(O)C(=O)c2c(O)cccc2C1=O [Compound 5, WS-5995D]: > 50 µM

Record COc1cc(C)cc(C(=O)O)c1C1=C(O)C(=O)c2c(O)cccc2C1=O [Compound 4, WS-5995C] : what is its IC50 with Huvec?
> 50 µM

Each recorded value in this set is attributed to paper PMC11122949.
